ASSAY DETAILS: Experimentally determined physicochemical values with Sirius T3 device
CONDITIONS: read-out: logP (experimental)
Structures can show the parent of a compound that is named as a salt.
REPORTED ENDPOINT: logP

COMPOUND | REPORTED ENDPOINT | MEASURED NUMBER
COc1ccc2nc3c(c(N)c2c1)C1CC(C)=CC(C3)C1 (racemic) [(±)-1·HCl] | logP | 3.58

###

ASSAY DETAILS: in vitro
CONDITIONS: PAMPA, pH 7.4
Structures can show the parent of a compound that is named as a salt.

COMPOUND | DISPLAY UNIT | Papp at 100 µM
COc1ccc2nc3c(c(N)c2c1)C1CC(C)=CC(C3)C1 (racemic) [(±)-1·HCl] | ×10⁻⁶ cm/s | 7.64

###

Test system: SH-SY5Y cell line
ASSAY DETAILS: cells
Format: cell-based, human
CONDITIONS: Homo sapiens, SH-SY5Y, 24 h, read-out: IC50 ± SEM SH-SY5Y
pIC50: −log10 of the molar value. Where a name gives a salt, the structure may show the parent alone.
Entries and their measured pIC50 follow.

MOLECULE | pIC50
COc1ccc2nc3c(c(N)c2c1)C1CC(C)=CC(C3)C1 (racemic) [(±)-1·HCl] | 4.75
CC1=CC2Cc3nc4cc(Cl)ccc4c(N)c3C(C1)C2 (racemic) [(±)-HupY·HCl] | 4.76
COc1ccc2nc3c(c(N)c2c1)CCCC3 | 4.57
Nc1c2c(nc3ccccc13)CCCC2 [THA, 1,2,3,4-tetrahydro-9-aminoacridine] | 3.92

###

ASSAY DETAILS: Experimentally determined physicochemical values with Sirius T3 device
CONDITIONS: read-out: pKa (experimental)
Where a name gives a salt, the structure may show the parent alone.
REPORTED ENDPOINT: pKa

MOLECULE | MEASURED NUMBER
COc1ccc2nc3c(c(N)c2c1)C1CC(C)=CC(C3)C1 (racemic) [(±)-1·HCl] | 9.54

###

ASSAY DETAILS: Experimentally determined physicochemical values with Sirius T3 device
CONDITIONS: pH 7.4, read-out: logD7.4 (experimental)
Where a name gives a salt, the structure may show the parent alone.
REPORTED ENDPOINT: logD

COMPOUND | REPORTED ENDPOINT | RESULT
COc1ccc2nc3c(c(N)c2c1)C1CC(C)=CC(C3)C1 (racemic) [(±)-1·HCl] | logD | 1.73

###

Test system: SH-SY5Y cell line
ASSAY DETAILS: cells
Assay type: cell-based, human
CONDITIONS: MTT, cytotoxic profile assessed after 24 h; read-out: IC50 ± SEM SH-SY5Y
pIC50: −log10 of the molar value.

COMPOUND | pIC50
Nc1c2c(nc3cc(Cl)ccc13)CCCC2 [6-chlorotacrine] | 4.30
